Data credit: patent US6525001B1

system: wheat (Triticum aestivum); test: Test B pre-/postemergence; assay type: in vivo; parameters: key: 0 is no effect; 10 is complete control; settings: Rate 250 g/ha, Postemergence

{"compound": "O=C(c1cccc(C(F)(F)F)c1)c1ccnc(-n2ccc(C(F)(F)F)n2)n1 [Compound 70]", "Plant response rating, Wheat": 0}
{"compound": "Cc1cnc(-c2ccc(C(F)(F)F)cc2)nc1Cn1cnc(C(F)(F)F)c1 [Compound 10]", "Plant response rating, Wheat": 3}
{"compound": "Cc1cnc(-c2ccc(Cl)c(Cl)c2)nc1Cc1cccc(C(F)(F)F)c1 [Compound 27]", "Plant response rating, Wheat": 4}
{"compound": "CCc1cnc(-n2cnc(C(F)(F)F)c2)nc1Cc1cccc(OC(F)(F)F)c1 [Compound 49]", "Plant response rating, Wheat": 5}
{"compound": "CCc1cnc(-n2ccc(C(F)(F)F)n2)nc1Cc1cccc(OC(F)(F)F)c1 [Compound 47]", "Plant response rating, Wheat": 6}
{"compound": "Cc1cnc(-c2ccc(Cl)cc2)nc1Cn1ccc(C(F)(F)F)n1 [Compound 6]", "Plant response rating, Wheat": 2}
{"compound": "Cc1cnc(-c2ccc(C(F)(F)F)cc2)nc1Cn1ccc(C#N)n1 [Compound 53]", "Plant response rating, Wheat": 1}
{"compound": "Cc1cnc(-c2ccc(F)cc2F)nc1Cc1cccc(C#N)c1 [Compound 34]", "Plant response rating, Wheat": 1}
{"compound": "COC(c1cccc(C(F)(F)F)c1)c1nc(-c2ccc(C(F)(F)F)cc2)ncc1C (racemic) [Compound 20]", "Plant response rating, Wheat": 3}
{"compound": "COc1cnc(-c2ccc(C(F)(F)F)cc2)nc1Cc1cccc(C(F)(F)F)c1 [Compound 23]", "Plant response rating, Wheat": 5}
{"compound": "Cc1cnc(-n2ccc(C(F)(F)F)n2)nc1C(=O)c1ccc(C(F)(F)F)cc1 [Compound 65]", "Plant response rating, Wheat": 2}
{"compound": "COC(=O)C(c1cccc(C(F)(F)F)c1)c1nc(-c2ccc(C(F)(F)F)cc2)ncc1C (racemic) [Compound 18]", "Plant response rating, Wheat": 3}
{"compound": "Cc1cnc(-c2ccc(C(F)(F)F)cc2)nc1Cn1nc(C(F)(F)F)cc1C [Compound 13]", "Plant response rating, Wheat": 3}
{"compound": "Cc1cnc(-c2ccc(C(F)(F)F)cc2)nc1Cn1ccc(C(F)(F)C(F)(F)F)n1 [Compound 14]", "Plant response rating, Wheat": 2}
{"compound": "Cc1cnc(-c2ccc(C#N)cc2)nc1Cc1cccc(C(F)(F)F)c1 [Compound 30]", "Plant response rating, Wheat": 2}
{"compound": "Cc1cnc(-c2ccc(Cl)cc2F)nc1Cc1cccc(C#N)c1 [Compound 35]", "Plant response rating, Wheat": 1}
{"compound": "Cc1cnc(-c2ccc(C(F)(F)F)cc2)nc1C(Cl)c1cccc(C(F)(F)F)c1 (racemic) [Compound 21]", "Plant response rating, Wheat": 5}

====

system: momingglory (Ipomoea hederacea); test: Test B pre-/postemergence; assay type: in vivo; conditions: Rate 125 g/ha, Postemergence
Morningglory plant response rating listing for selected compounds.
measured parameter: Morningglory plant response rating

{"compound smiles": "Cc1cnc(-c2ccc(C(F)(F)F)cc2)nc1C(=O)c1cccc(C(F)(F)F)c1", "measured parameter": "Morningglory plant response rating", "value observed": 9}
{"compound smiles": "COc1cnc(-n2ccc(C(F)(F)F)n2)nc1Cc1cccc(C(F)(F)F)c1", "measured parameter": "Morningglory plant response rating", "value observed": 0}
{"compound smiles": "Cc1cnc(-n2ccc(C(F)(F)F)n2)nc1Cn1ccc(C(F)(F)F)n1", "measured parameter": "Morningglory plant response rating", "value observed": 10}
{"compound smiles": "Cc1cnc(-c2ccc(C(F)(F)F)cc2)nc1Cn1ccc(C#N)n1", "measured parameter": "Morningglory plant response rating", "value observed": 3}
{"compound smiles": "Cc1cnc(-c2ccc(F)c(Cl)c2)nc1Cc1cccc(C#N)c1", "measured parameter": "Morningglory plant response rating", "value observed": 2}
{"compound smiles": "Cc1cnc(-c2ccc(C(F)(F)F)cc2)nc1Cc1cccc(C#N)c1", "measured parameter": "Morningglory plant response rating", "value observed": 8}
